Test: basal 3T3-L1 adipocyte mitochondrial potential changes, profiling panel, cell-based, JC-1 fluorescence, 3T3-L1 adipocytes, 24 h, 100 nL compound (AID 1168); also: test concentration not given here
Settings: JC-1 mitochondrial fluorescence, higher = more signal, called active from +8 up or from −8 down
z-score: recorded values
Respond with the number and no other words.

Compound | z-score
COc1ccc(CCN2C(=O)[C@@]3(c4ccc([N+](=O)[O-])cc4)CC(=O)N(CC45CC6CC(CC(C6)C4)C5)[C@@H]3c3ccc(CO)cc32)cc1 | 0.0691
CC(C)CNC(=O)[C@@]1(C)c2ccccc2C(=O)N(Cc2ccc(OC(F)(F)F)cc2)[C@H]1c1ccc(CO)cc1 | -0.481
COCCCNC(=O)[C@@H]1c2ccccc2C(=O)N(CC23CC4CC(CC(C4)C2)C3)[C@H]1c1ccc(CO)cc1 | -0.227

Assign z-score to the following record: COC(=O)c1ccc(C#CC(NP(=O)(c2ccccc2)c2ccccc2)c2ccccc2)cc1 (configuration not stated)
-0.174

Assign z-score to the following record: CCCC[C@@H]1C[C@H]1[C@@H](NC(=O)c1cccs1)c1ccc(Cl)cc1
0.53

Assign z-score to the following record: CC(=O)Nc1ccc([C@H]2[C@H](C)CC[C@H]3C(=O)N4[C@@H](CC[C@@H](C)[C@@H]4c4ccc(NC(C)=O)cc4)C(=O)N32)cc1
-0.183

Assign z-score to the following record: COc1cc(CO)cc(I)c1O[C@H]1C=C(C(=O)NCCO)C[C@@H](N(CC2CCCCC2)C(=O)c2cc3ccccc3oc2=O)[C@@H]1O
-0.294
